- Test system: PPARg:RXRa 90nM:30nM, anti-RXR (NR concentration 90 nM, RXRa partner concentration 30 nM)
- Test: PBM binding z-score (relative to random genomic background probes); higher = stronger binding; sequences stand for … in GC…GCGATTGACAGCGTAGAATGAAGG
Classification scheme (PBM binding z-score): lower level (below 0.4), middle level (0.4 to below 2), upper level (2 or more)

Data request: Assign a category based on measured PBM binding z-score for TTACCAAGGTGAGCTGAGGACGTTGATCCAACTC and give only the class name.
Data returned: lower level

Data request: Assign a category based on measured PBM binding z-score for CACACTAGGTCAAGGTCAAAGTCGGTTTGTGCCA and give only the class name.
Data returned: upper level

Data request: Assign a category based on measured PBM binding z-score for ATCTCTAGGTATAAGTTCAGTGAATCCCGAGGAT and give only the class name.
Data returned: upper level

Data request: Assign a category based on measured PBM binding z-score for CGAACTAGGTCATTGACAGGACAGCGAATAGTAA and give only the class name.
Data returned: upper level

Data request: Assign a category based on measured PBM binding z-score for CGAACGAGGGCATAAGTTGATAGCAAATGCCGAT and give only the class name.
Data returned: upper level

Data request: Assign a category based on measured PBM binding z-score for TCTTGCAGATCAATAGAGGTTAAGAAAGTGCGCT and give only the class name.
Data returned: middle level

Data request: Assign a category based on measured PBM binding z-score for TCTTGTAGATCACCAGGAGGTTAAGAAAGATCGA and give only the class name.
Data returned: middle level

Data request: Assign a category based on measured PBM binding z-score for ACAGACAGGTGAGGAAGGTAACTCAGGCTATCAT and give only the class name.
Data returned: lower level

Data request: Assign a category based on measured PBM binding z-score for GGAACCAGGGCATTCGAGTTGATAGCATGGCGAT and give only the class name.
Data returned: lower level

Data request: Assign a category based on measured PBM binding z-score for AGAATGAGGTTTAGATCAGGGAAACAGAATACAT and give only the class name.
Data returned: lower level

Data request: Assign a category based on measured PBM binding z-score for TCTTGTAGATAAAGCAGGTTAAGAAAGCCTGAGT and give only the class name.
Data returned: upper level

Data request: Assign a category based on measured PBM binding z-score for CCTCGGAGGATAGAAGGTCAGAGCTGTCCGCTTT and give only the class name.
Data returned: middle level

Data request: Assign a category based on measured PBM binding z-score for TCGAGTAGGTTACCAATGGGGAATTCAGCTTTCT and give only the class name.
Data returned: middle level

Data request: Assign a category based on measured PBM binding z-score for TCATATAGGTAAACAGGTGATAGTCCGTAAGTTA and give only the class name.
Data returned: upper level

Data request: Assign a category based on measured PBM binding z-score for ATCTCTAGGTAAGACTCAGTTCGGTGAAGAACGC and give only the class name.
Data returned: lower level

Data request: Assign a category based on measured PBM binding z-score for GGCACGAGGGCAAGTTGATAGCAGAGTTTGATGG and give only the class name.
Data returned: middle level

Data request: Assign a category based on measured PBM binding z-score for ATACCAAGGTGATCGTGAGGCCGTTGATACTAAC and give only the class name.
Data returned: lower level

Data request: Assign a category based on measured PBM binding z-score for ATACCAAGGTGATCGTGAGGTCGCTGATACTAAC and give only the class name.
Data returned: lower level
